testProtocol: gradient 5% acetonitrile 3 min, to 50% in 2 min, to 85% in 15 min, held 3 min, 100 µL/min
testConditions: column: Zorbax Extend-C18 2.1 x 50 mm; eluents: water / acetonitrile, 0.1% formic acid
Reported RP-LC retention time by item:
quantityMeasured: RP-LC retention time (s)

| compound | recordedMeasurement |
| --- | --- |
| O=C(Nc1cc(F)ccc1F)N1CCC(CCNC(=O)C2(c3ccccc3)CC2)CC1 | 948 |
| Cc1ccc(NC(=O)CN2C(=O)CCCc3cc(S(=O)(=O)N4CCCC4)ccc32)cc1Cl | 943 |
| COc1ccc(OC)c(NC(=O)N(C)CCc2noc(COc3ccccc3F)n2)c1 | 932 |
| Cc1ccc(-c2noc(CC(=O)NC(C)c3ccc(C)cc3C)n2)cc1 (configuration not stated) | 1080 |
| O=C(CN1C(=O)COc2ccc(C(=O)N3CCCC3)cc21)NCc1ccc(Cl)cc1 | 745 |
| CC1CC(=O)Nc2cc(S(=O)(=O)N3CCN(c4ccccn4)CC3)ccc2S1 (configuration not stated) | 646 |
| CCCCN(C)C(=O)CCC1CCN(c2cc(NC3CC3)ncn2)CC1 | 654 |
| CCC(=O)N1CCc2ccccc2C1C(=O)NCc1ccccc1Br (configuration not stated) | 884 |
| Cc1ncsc1CN1CCC(Oc2ccccc2-c2nc(-c3ccccc3)no2)C1 (configuration not stated) | 732 |
| CCc1nnc(NC(=O)CN2C(=O)C3CCCCN3c3ccc(C(=O)N(C)C)cc32)s1 (configuration not stated) | 700 |
| Cc1cc(-c2nnc(-c3ccco3)o2)c(C)n1CC(=O)Nc1ccc(F)c(Cl)c1 | 941 |
| CCN1C(=O)c2cccnc2Sc2cc(NC(=O)Cc3c(F)cccc3Cl)ccc21 | 870 |
| O=C(Nc1ncccn1)c1ccc(Cl)c(S(=O)(=O)N2CCOCC2)c1 | 611 |
| Cc1cc(C(=O)NC2CCCC2)nn1C | 680 |
| O=C(Nc1cc(F)cc(F)c1)N1CCC(CCNC(=O)C2(c3ccccc3)CC2)CC1 | 984 |
| O=C(NCc1ccc2c(c1)OCO2)C(=O)NCC1OCCN1S(=O)(=O)c1ccccc1 (configuration not stated) | 752 |
| Cc1ccc(C)c(NC(=O)CN2C(=O)C3CCCCN3c3ccc(S(=O)(=O)N(C)C)cc32)c1 (configuration not stated) | 955 |

----------
testProtocol: gradient 5% acetonitrile 3 min, to 50% in 2 min, to 85% in 15 min, held 3 min, 100 µL/min
testConditions: column: Zorbax Extend-C18 2.1 x 50 mm; eluents: water / acetonitrile, 0.1% formic acid

| compound | unitInfo | RP-LC retention time |
| --- | --- | --- |
| CC1CCN(CCCNC(=O)c2nnc(-c3ccc(S(=O)(=O)N4CCCC4)cc3)o2)CC1 | s | 642 |
| O=C(NCc1ccccc1Cl)C(=O)Nc1cccc(N2CCCCC2=O)c1 | s | 751 |
| COc1ccc(OCC(=O)N2CCN(c3cc(C(C)C)n4cnnc4n3)CC2)cc1 | s | 619 |
| Cc1ccc(-n2nc3c(=O)n(CCCC(=O)N4CCCC4)nc(C)c3c2C)cc1 | s | 748 |
| Cc1ccc(C)c(NC(=O)CN(C)S(=O)(=O)c2cc(C(=O)N3CCC(C)CC3)n(C)c2)c1 | s | 924 |
| CC(C)c1nnc(-c2cccnc2N2CCN(C(=O)C3CCCO3)CC2)o1 (configuration not stated) | s | 675 |
| CN1C(=O)[C@H]2CN(Cc3ccccc3)C[C@H]2C1=O | s | 546 |

----------
Reported RP-LC retention time by item:
testProtocol: gradient 5% acetonitrile 3 min, to 50% in 2 min, to 85% in 15 min, held 3 min, 100 µL/min
testConditions: column: Zorbax Extend-C18 2.1 x 50 mm; eluents: water / acetonitrile, 0.1% formic acid
quantityMeasured: RP-LC retention time (s)

| compound | recordedMeasurement |
| --- | --- |
| N#Cc1ccc(N2C=C(C(=O)N3CCOCC3)S(=O)(=O)c3ccc(Cl)cc32)cc1 | 764 |
| O=C(Cc1ccc(Cl)cc1)N1CCC2(C1)C(=O)Nc1ccccc12 (stereo not drawn) | 758 |
| COc1cc(-c2nc3ncccn3c2NCc2ccc(C)cc2)cc(OC)c1OC | 746 |
| COc1ccc(NC(=O)N2CCC(n3c(-c4ccco4)nc4cccnc43)C2)cc1F (stereo not drawn) | 690 |
| Cc1ccc2nc(-c3ccc(C)c(NC(=O)C4CCCCC4)c3)[nH]c2c1 | 735 |
| O=C(O)c1cn(-c2ccccc2F)nn1 | 650 |
| O=C(c1ccc(Br)o1)N1CCN(Cc2nnnn2-c2ccc(F)cc2)CC1 | 776 |
| O=C(Nc1ccc2c(c1)OCO2)N1CCC(N2CCN(Cc3ccc(F)cc3)C2=O)CC1 | 788 |

----------
testProtocol: gradient 5% acetonitrile 3 min, to 50% in 2 min, to 85% in 15 min, held 3 min, 100 µL/min
testConditions: column: Zorbax Extend-C18 2.1 x 50 mm; eluents: water / acetonitrile, 0.1% formic acid

| compound | unitInfo | RP-LC retention time |
| --- | --- | --- |
| Cc1ccc(S(=O)(=O)N2CCCOC2CNC(=O)C(=O)NCc2cccs2)cc1 (stereo not drawn) | s | 806 |
| CCc1noc(NC(C)=O)c1-c1ccc(C)c(S(=O)(=O)Nc2ccc(F)cc2)c1 | s | 822 |
| CCN1C(=O)CCC2(C(=O)Nc3ccc(OC)cc3OC)CCCC=C12 (stereo not drawn) | s | 789 |

----------
testProtocol: gradient 5% acetonitrile 3 min, to 50% in 2 min, to 85% in 15 min, held 3 min, 100 µL/min
testConditions: column: Zorbax Extend-C18 2.1 x 50 mm; eluents: water / acetonitrile, 0.1% formic acid
Assign a class from recorded RP-LC retention time; defined classes: L (below 700 s), M (700 s to below 800 s), H (800 s or more)

| molecule | labelClass |
| --- | --- |
| COc1ccc(C2C(C(=O)N3CCC(C)CC3)c3cc(OC)c(OC)cc3C(=O)N2C)cc1OC (stereo not drawn) | M |
| O=C(Nc1cnn(-c2ncc(N3CCCCC3)cn2)c1)c1ccc(C(F)(F)F)cc1 | H |
| Cc1nc(OCC(=O)NCc2ccc(Cl)cc2)c2c(C)c(C)oc2n1 | H |
| CCOC(=O)CNC(=O)NCCc1nc2cccnc2n1Cc1ccccc1 | L |
| Cc1nnc(NC(=O)CCn2cnc3ccccc3c2=O)s1 | L |
| COc1ccc2c(c1)C1(CCN(C(=O)NCCc3ccccc3)C1)C(=O)N2 (stereo not drawn) | M |
| Cn1cnc(S(=O)(=O)N2CC(c3nc(-c4ccncc4)no3)C2)c1 | L |
| CCCN(CCC)C(=O)c1cc(NC(=O)CC)cnc1N1CCNCC1 | L |
| Cc1ccc(Nc2c(-c3ccccc3)nc3cc(C)ccn23)cc1 | M |
| CCC(=O)N1CCc2cc(N3CC(C(=O)NCc4cc(F)cc(F)c4)CC3=O)ccc21 (stereo not drawn) | M |

----------
testProtocol: gradient 5% acetonitrile 3 min, to 50% in 2 min, to 85% in 15 min, held 3 min, 100 µL/min
testConditions: column: Zorbax Extend-C18 2.1 x 50 mm; eluents: water / acetonitrile, 0.1% formic acid

| compound | unitInfo | RP-LC retention time |
| --- | --- | --- |
| O=C(c1cc(-c2ccncc2)n[nH]1)N1CCCC(C(=O)N2CCN(c3ccc(Cl)cc3)CC2)C1 (stereo not drawn) | s | 661 |
| CCOc1ccc(OCC)c(NS(=O)(=O)c2cc(-c3c(C)noc3NC(C)=O)ccc2OC)c1 | s | 864 |
| CN1c2ccc(Cl)cc2C(=O)NC12CCN(C(=O)Nc1ccccc1)CC2 | s | 800 |
| CCCCN(C)c1ncc(C(=O)NCc2ccccc2)c(N)n1 | s | 690 |
| CCOC(=O)c1nc(N2CCN(c3cccc(OC)c3)CC2)c2c(C)noc2n1 | s | 960 |
| COC(=O)N1CCc2ccc(F)cc2C1C(=O)NCc1cccnc1 (stereo not drawn) | s | 554 |
| Cn1c(SCC(=O)N2CCCCC2)nnc1-c1ccc2c(c1)OCCCO2 | s | 664 |
| CC(C)c1noc(-c2cccnc2N2CCCN(Cc3c(F)cccc3Cl)CC2)n1 | s | 721 |

----------
testProtocol: gradient 5% acetonitrile 3 min, to 50% in 2 min, to 85% in 15 min, held 3 min, 100 µL/min
testConditions: column: Zorbax Extend-C18 2.1 x 50 mm; eluents: water / acetonitrile, 0.1% formic acid
Assign a class from recorded RP-LC retention time; defined classes: low range (below 700 s), mid range (700 s to below 900 s), high range (900 s or more)

| compound | labelClass |
| --- | --- |
| Cc1ccc(C)c(N2CCN(c3ccnc(SCC(=O)Nc4ccc(F)c(Cl)c4)n3)CC2)c1 | high range |
| COCCNC(=O)Nc1nc(CSCc2cc(OC)cc(OC)c2)cs1 | mid range |
| CN(C)CCCNC(=O)Cn1c(=O)n(-c2ccccc2)c2ncccc21 | low range |
| Cc1ccc2cc(CCC(=O)NCCCN(C)C)c(=O)[nH]c2c1 | low range |
| CCn1cc(-c2nc(C(=O)Nc3ccc(C(=O)OC)cc3)cs2)c2cccnc21 | high range |
| Cc1nc(-c2csc(S(=O)(=O)N3CCCC(C(=O)Nc4ccc(F)c(Cl)c4)C3)c2)no1 (stereo not drawn) | high range |
| CC(C)c1nnc(-c2cccnc2N2CCN(C(=O)c3ccc4cc[nH]c4c3)CC2)o1 | mid range |
| Cc1noc(C)c1-c1ccc(S(=O)(=O)Nc2ccc(S(N)(=O)=O)cc2)cc1 | mid range |
| COc1ccc(-c2nc(-c3cccc(-c4ccn[nH]4)c3)no2)c(C)c1 | high range |
| Cc1cc(-c2nnc(-c3ccco3)o2)c(C)n1CC(=O)Nc1cc(F)cc(F)c1 | high range |
| CCc1nccn1Cc1nc(-c2ccccc2Cl)no1 | low range |
| c1ccc(N2CCN(Cc3nc(-c4ccc(N5CCSCC5)nc4)no3)CC2)nc1 | low range |
| CC(C)CNC(=O)C1CCCN(c2ccnc(-c3ccc(F)cc3)n2)C1 (stereo not drawn) | low range |
| CCn1nccc1C(=O)N1CC(N(C2CCOCC2)S(C)(=O)=O)C1 | low range |

// data source = the METLIN SMRT retention time set (Domingo-Almenara et al. 2019)
